subject of test: HIF-2α HIS TAG-PASB Domain (Homo sapiens, UniProt Q99814)
Construct: 100 nM HIF-2α HIS TAG-PASB Domain
Sequence (Q99814 240-350 limits assumed): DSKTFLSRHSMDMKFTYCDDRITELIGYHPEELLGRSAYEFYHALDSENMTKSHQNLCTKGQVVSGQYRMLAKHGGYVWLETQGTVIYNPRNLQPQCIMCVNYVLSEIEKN
assay remarks: HIF-2α Scintillation Proximity Assay (SPA)
Type: binding
run parameters: read-out: Scintillation Proximity Assay IC50
metric name: IC50

Below are worked cases with known answers.
Ask | Entry under review: CS(=O)(=O)c1ccc(Oc2cncc(Br)c2)c2c1[C@H](O)[C@H](F)[C@@H]2F . Reported IC50?
Reply | < 50 nM

Ask | Entry under review: CS(=O)(=O)c1ccc(Oc2cccc(C#N)c2)c2c1[C@H](O)C(F)(F)C2 . Reported IC50?
Reply | 50 to 249 nM

Ask | Entry under review: COc1cc(F)cc(Oc2ccc3c(c2C#N)[C@@H](O)C(F)(F)S3(=O)=O)c1 . Reported IC50?
Reply | 50 to 249 nM

Ask | Entry under review: OC1CCc2c(OCC(F)F)ccc(C(F)(F)F)c21 (stereo not drawn) [Compound 696] . Reported IC50?
Reply | 50 to 249 nM

Ask | Entry under review: CC1(O)c2c(ccc(Oc3cc(F)cc(F)c3)c2C#N)S(=O)(=O)C1(F)F (stereo not drawn) . Reported IC50?
Reply | < 50 nM

Next item in the queue.
Ask | Entry under review: CS(=O)(=O)c1ccc(O[C@H]2CC[C@H](C#N)CC2)c2c1[C@H](O)C(F)(F)[C@@H]2F . Reported IC50?
Reply | > 1000 nM
